System: U-373MG
Experiment: MTT test, cytotoxic activity on non-clonogenic cell lines
Type: cell-based
Details: Homo sapiens, U373 MG; 10^−5 M, 72 hours of incubation, control condition = 100%, mean value; read-out: mean optical density as percentage of control, U-373MG
Test readout: viability at 10 µM (%)
A number alone suffices; assume %.

QUERY: Consider the compound shown here: "COc1ccc(-c2cn(C)c3cc(OC)cc(N4CCOCC4)c3c2=O)cc1" What is its recorded viability at 10 µM?
RESULT: 85

QUERY: Could you tell me which viability at 10 µM is on file for "COc1ccc(-c2cn(C)c3cc(OC)cc(O)c3c2=O)cc1" ?
RESULT: 56.7

QUERY: # input compound: "COc1cccc2c(=O)c(-c3ccccc3)c[nH]c12" ; wanted: its viability at 10 µM
RESULT: 98.1

QUERY: Tell me the measured viability at 10 µM of "COc1ccc(-c2cn(CCC#N)c3cc(OC)cc(OC)c3c2=O)cc1" , please.
RESULT: 80.8

QUERY: Reported viability at 10 µM, compound "COc1ccc(-c2c[nH]c3c(OC)cccc3c2=O)cc1" : ____
RESULT: 94

Cited source: patent US6645983B1
